# PROTOCOL: Cmax in male Swiss mouse at 100 mg/kg, po administered via gavage measured upto 48 hrs postdose by LC-MS analysis
# Assay type: ADME, organism-based
# Design: route oral, dose 100 mg/kg, time <=48
# ASSAY_CONDITIONS: in vivo
ENDPOINT: log10 Cmax (log10 of the value in µM)
Note: values are log10 of Cmax expressed in µM.

Before answering, review these 4 worked examples.
CCN1C(=O)N(c2ccc(F)c(C(F)(F)F)c2)C(=O)C1(C)C 1.05
CC1(C)NC(=O)N(c2ccnc(C(F)(F)F)c2)C1=O 2.19
CN(C)C(=O)c1cc(N2C(=O)NC(C)(C)C2=O)ccc1F 2.69
CC1(C)NC(=O)N(c2ccc(F)c(C(F)F)c2)C1=O 2.05

Please state, for each entry, its recorded log10 Cmax.
1. CC1(C)NC(=O)N(c2ccc(F)c(C(F)(F)F)c2)C1=O
2. O=C1NC2(CCCC2)C(=O)N1c1ccc(F)c(C(F)(F)F)c1

## Result
1: 2.09; 2: 1.18
